test_target: T1, recombinant human IL-23R/Fc chimera (R&D Systems) (human, UniProt Q5VWK5 24-355)
T1 construct: Bought; also called rhIL23RFc
T1 sequence (looked up): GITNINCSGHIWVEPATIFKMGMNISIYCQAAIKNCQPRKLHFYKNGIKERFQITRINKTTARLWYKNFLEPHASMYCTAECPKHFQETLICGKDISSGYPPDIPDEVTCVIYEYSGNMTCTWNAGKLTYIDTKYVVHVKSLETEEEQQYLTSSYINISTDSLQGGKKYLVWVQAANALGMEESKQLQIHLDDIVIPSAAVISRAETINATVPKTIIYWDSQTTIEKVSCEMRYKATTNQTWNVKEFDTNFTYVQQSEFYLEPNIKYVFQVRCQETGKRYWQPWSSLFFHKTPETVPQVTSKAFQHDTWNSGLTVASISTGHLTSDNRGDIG
assay_remarks: competition ELISA vs IL-23
quantity: Ratio IC50 to 056-53.H4E IC50
One number for each entry.

Please review the following examples before continuing.
* 105-08-1D10 ATRIMER complex (designed binder) EPPTQKPKKIVNAKKDVVNTKMFEELKSRLDTLAQEVALLKEQQALQTVCLKGTKVHMKCFLAFTQTKTFHEASEDCISRGGTLSTPQTGSENDALYEYLRQSVGNEAEIWLGLNGSARTGTWVDMTGARIAYKNWETEITAQPDGGWGYFGENCAVLSGAANGKWFDKRCRDQLPYICQFGIV | 5.5
* 101-54-4A12 ATRIMER complex (designed binder, also called 101-54-4Al2) EPPTQKPKKIVNAKKDVVNTKMFEELKSRLDTLAQEVALLKEQQALQTVCLKGTKVHMKCFLAFTQTKTFHEASEDCISRGGTLSTPQTGSENDALYEYLRQSVGNEAEIWLGLNGSRRSGVWVDMTGARIAYKNWEPPGPAHPQGGFGVFGENCAVLSGAANGKWFDKRCRDQLPYICQFGIV | 1.1

Read the next record carefully.
Can you share its Ratio IC50 to 056-53.H4E IC50? I mean this binder: 105-08-2H12 ATRIMER complex (designed binder, not shown: small tags and cut ends) EPPTQKPKKIVNAKKDVVNTKMFEELKSRLDTLAQEVALLKEQQALQTVCLKGTKVHMKCFLAFTQTKTFHEASEDCISRGGTLSTPQTGSENDALYEYLRQSVGNEAEIWLGLNGSPRTETWVDMTGARIAYKNWETEITAQPDGGFGYFGENCAVLSGAANGKWFDKRCRDQLPYICQFGIV 3.3
